meta.source: ChEMBL document CHEMBL5608217

- MEASUREMENT DESCRIPTION: Genotoxicity in Chinese hamster CHO-K1 cells assessed as increase in micronucleated cell rate at […] incubated for 3 hrs in presence of Sprague-Dawley rat liver S9 fraction by Giemsa staining based micronucleus assay
- Type: toxicity, subcellular, Cricetulus griseus
- EXPERIMENTAL CONDITIONS: s9, 3 h, dose lower 1 g/L
QUANTITY MEASURED: Activity

INSERT INTO assay_data (query_smiles, endpoint_value) VALUES
  ('OCc1ccc(-c2ccc(SCc3ccc(-c4ccc(N5CCOCC5)cc4)cc3)nc2)cc1', 'Non-Toxic'),
  ('COc1ccc2oc(SCc3ccc(-n4cncn4)cc3)nc2c1', 'Non-Toxic'),
  ('OCc1ccc(-c2ccc(SCc3ccc(-n4cncn4)cc3)nc2)cc1', 'Non-Toxic'),
  ('Cn1nccc1-c1ccc(SCc2ccc(-n3cncn3)cc2)cc1', 'Non-Toxic');

* * *

Each record here notes measured CC50.
- MEASUREMENT DESCRIPTION: Cytotoxicity against human RD cells
- Format: toxicity, cell-based
QUANTITY MEASURED: CC50

INSERT INTO results (query_smiles, quantity_measured, endpoint_value) VALUES
  ('OCc1ccc(-c2ccc(SCc3ccc(-c4ccc(N5CCOCC5)cc4)cc3)nc2)cc1', 'CC50', '> 40 µM'),
  ('Cc1cccc2c1[nH]c1nc(SCc3ccc(-n4cncn4)cc3)nnc12', 'CC50', '8.89 µM'),
  ('Cn1nccc1-c1ccc(SCc2ccc(-n3cncn3)cc2)cc1', 'CC50', '> 40 µM'),
  ('FC(F)(F)c1ccc2c(SCc3ccc(-n4cncn4)cc3)ccnc2c1', 'CC50', '20.8 µM'),
  ('c1ccc2nc(SCc3ccc(-n4cncn4)cc3)cnc2c1', 'CC50', '> 40 µM'),
  ('OCc1ccc(-c2ccc(SCc3ccc(-n4cncn4)cc3)nc2)cc1', 'CC50', '> 40 µM'),
  ('CCOc1noc2cc(OCCC3CCN(c4ccc(C)nn4)CC3)ccc12', 'CC50', '> 63 µM'),
  ('c1ccc2nc(SCc3ccc(-n4cncn4)cc3)ccc2c1', 'CC50', '> 40 µM'),
  ('COc1ccc2oc(SCc3ccc(-n4cncn4)cc3)nc2c1', 'CC50', '22.1 µM'),
  ('COc1ccc2[nH]c(SCc3ccc(-n4cncn4)cc3)nc2c1', 'CC50', '> 40 µM');

* * *

- MEASUREMENT DESCRIPTION: Selectivity index, ratio of CC50 for cytotoxicity against human MRC5 cells to EC50 for antiviral activity against Enterovirus A71 infected in human MRC5 cells
- Format: toxicity, cell-based
- EXPERIMENTAL CONDITIONS: read-out: Ratio CC50/EC50
QUANTITY MEASURED: selectivity ratio

INSERT INTO results (query_smiles, quantity_measured, endpoint_value) VALUES
  ('COc1ccc2oc(SCc3ccc(-n4cncn4)cc3)nc2c1', 'selectivity ratio', '< 1'),
  ('OCc1ccc(-c2ccc(SCc3ccc(-c4ccc(N5CCOCC5)cc4)cc3)nc2)cc1', 'selectivity ratio', '> 3.1'),
  ('OCc1ccc(-c2ccc(SCc3ccc(-n4cncn4)cc3)nc2)cc1', 'selectivity ratio', '> 68'),
  ('Cn1nccc1-c1ccc(SCc2ccc(-n3cncn3)cc2)cc1', 'selectivity ratio', '> 35');

* * *

Reported selectivity ratio is given for each of the following compounds.
- MEASUREMENT DESCRIPTION: Selectivity index, ratio of CC50 for cytotoxicity against human RD cells to EC50 for antiviral activity against Enterovirus A71 infected in human RD cells
- Assay type: toxicity, cell-based
- EXPERIMENTAL CONDITIONS: read-out: Ratio CC50/EC50
QUANTITY MEASURED: selectivity ratio

INSERT INTO measurements (query_smiles, endpoint_value) VALUES
  ('Cn1nccc1-c1ccc(SCc2ccc(-n3cncn3)cc2)cc1', '> 9'),
  ('OCc1ccc(-c2ccc(SCc3ccc(-n4cncn4)cc3)nc2)cc1', '> 24'),
  ('OCc1ccc(-c2ccc(SCc3ccc(-c4ccc(N5CCOCC5)cc4)cc3)nc2)cc1', '> 2');

* * *

Overview of reported CC50 across a group of compounds:
- MEASUREMENT DESCRIPTION: Cytotoxicity against human MRC5 cells
- Format: toxicity, cell-based
QUANTITY MEASURED: CC50

INSERT INTO results (query_smiles, quantity_measured, endpoint_value) VALUES
  ('OCc1ccc(-c2ccc(SCc3ccc(-c4ccc(N5CCOCC5)cc4)cc3)nc2)cc1', 'CC50', '> 20 µM'),
  ('COc1ccc2oc(SCc3ccc(-n4cncn4)cc3)nc2c1', 'CC50', '> 20 µM'),
  ('Cc1cccc2c1[nH]c1nc(SCc3ccc(-n4cncn4)cc3)nnc12', 'CC50', '15.6 µM'),
  ('COc1ccc2[nH]c(SCc3ccc(-n4cncn4)cc3)nc2c1', 'CC50', '> 40 µM'),
  ('Cn1nccc1-c1ccc(SCc2ccc(-n3cncn3)cc2)cc1', 'CC50', '> 20 µM'),
  ('CCOc1noc2cc(OCCC3CCN(c4ccc(C)nn4)CC3)ccc12', 'CC50', '> 20 µM'),
  ('c1ccc2nc(SCc3ccc(-n4cncn4)cc3)ccc2c1', 'CC50', '> 40 µM'),
  ('c1ccc2nc(SCc3ccc(-n4cncn4)cc3)cnc2c1', 'CC50', '> 40 µM'),
  ('FC(F)(F)c1ccc2c(SCc3ccc(-n4cncn4)cc3)ccnc2c1', 'CC50', '> 40 µM'),
  ('OCc1ccc(-c2ccc(SCc3ccc(-n4cncn4)cc3)nc2)cc1', 'CC50', '> 20 µM');
